Entries and their Mean % WT Binding
testedOn: human CD33 variant Y49D (human, UniProt P20138 18-364)
Sequence (P20138 18-364 Y49D limits assumed): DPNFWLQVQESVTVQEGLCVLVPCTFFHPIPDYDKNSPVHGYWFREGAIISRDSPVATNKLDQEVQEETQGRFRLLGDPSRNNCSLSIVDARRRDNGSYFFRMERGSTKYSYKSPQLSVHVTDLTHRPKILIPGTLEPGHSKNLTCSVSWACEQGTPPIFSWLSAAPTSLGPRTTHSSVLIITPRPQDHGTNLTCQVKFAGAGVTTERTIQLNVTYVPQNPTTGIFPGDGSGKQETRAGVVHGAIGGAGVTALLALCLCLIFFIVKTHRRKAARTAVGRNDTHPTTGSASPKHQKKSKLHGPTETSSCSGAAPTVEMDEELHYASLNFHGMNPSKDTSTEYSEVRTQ
assay: flow cytometry, IgG on cells expressing the mutant

| binder | Mean % WT Binding |
| --- | --- |
| Refmab #2 (antibody, human IgG1, V domains shown, Tested in IgG format; human IgG1 Fc silent (PG-LALA)) VH: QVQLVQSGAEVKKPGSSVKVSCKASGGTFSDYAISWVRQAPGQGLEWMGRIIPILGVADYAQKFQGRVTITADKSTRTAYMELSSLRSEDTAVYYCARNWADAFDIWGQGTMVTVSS VL: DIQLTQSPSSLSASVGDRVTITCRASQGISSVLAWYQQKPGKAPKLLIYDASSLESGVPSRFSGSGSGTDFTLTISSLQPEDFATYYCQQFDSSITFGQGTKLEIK | 1.4 % of WT |
| Refmab #3 (antibody, human IgG1, V domains shown, Tested in IgG format; human IgG1 Fc silent (PG-LALA)) VH: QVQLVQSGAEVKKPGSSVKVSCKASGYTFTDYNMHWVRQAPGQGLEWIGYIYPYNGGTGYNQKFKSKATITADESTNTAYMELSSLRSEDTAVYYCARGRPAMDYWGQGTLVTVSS VL: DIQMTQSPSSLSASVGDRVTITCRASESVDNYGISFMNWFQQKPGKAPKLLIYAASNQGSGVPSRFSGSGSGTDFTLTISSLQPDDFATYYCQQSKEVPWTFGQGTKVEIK | 94.4 % of WT |
| Refmab #1 (antibody, human IgG1, V domains shown, Tested in IgG format; human IgG1 (Absolute Antibody hP67.6, Cat. No. Ab00283-10.0); also called hP67.6) VH: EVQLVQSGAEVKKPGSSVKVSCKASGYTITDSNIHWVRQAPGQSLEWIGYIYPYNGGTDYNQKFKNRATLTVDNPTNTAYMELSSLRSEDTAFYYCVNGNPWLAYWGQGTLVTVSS VL: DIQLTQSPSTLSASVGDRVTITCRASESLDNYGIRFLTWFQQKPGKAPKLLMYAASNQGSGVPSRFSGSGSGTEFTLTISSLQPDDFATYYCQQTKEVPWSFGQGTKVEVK | 93.4 % of WT |
| Refmab #4 (antibody, human IgG1, V domains shown, Tested in IgG format; human IgG1 Fc silent (PG-LALA)) VH: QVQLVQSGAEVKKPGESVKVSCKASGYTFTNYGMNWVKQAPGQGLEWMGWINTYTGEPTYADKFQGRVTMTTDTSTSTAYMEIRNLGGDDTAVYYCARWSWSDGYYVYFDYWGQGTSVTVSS VL: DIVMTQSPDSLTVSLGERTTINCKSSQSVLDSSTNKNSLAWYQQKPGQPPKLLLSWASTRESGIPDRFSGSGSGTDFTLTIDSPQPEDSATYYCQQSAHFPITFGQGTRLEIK | 2.5 % of WT |
